- TARGET_OF_ASSAY: human His-PIM2 [23-299] (Homo sapiens)
- Construct: purified human His-PIM2 [23-299] enzyme; His (N); host or cells: E. coli
- PROCEDURE_TEXT: PIM2 in-vitro mobility shift assay (Caliper LC3000, FL-Ahx-Bad phosphorylation)
- Type: biochemical
- PARTICULARS: 1.5 h; percent inhibition at 0.3 uM compound; read-out: PIM2 % I at 0.3 uM
Structures can show the parent of a compound that is named as a salt.
MEASUREMENT_LABEL: inhibition at 0.3 µM

INSERT INTO results (compound, measurement_label, value_reported) VALUES
  ('CN(C)[C@H]1CCN(c2cccc(Cl)c2C=C2SC(=O)NC2=O)C1 [Example 84O]', 'inhibition at 0.3 µM', '< 5%'),
  ('O=C1NC(=O)/C(=C/c2cc(C(F)(F)F)cc(Cl)c2N2CCN(Cc3ccc4c(c3)OCO4)CC2)S1', 'inhibition at 0.3 µM', '< 5%'),
  ('COc1cc(/C=C2\SC(=O)NC2=O)c(N2CCC(CN)C2)cc1OC (stereo not shown) [Example 99, hydrochloride]', 'inhibition at 0.3 µM', '> 95%'),
  ('N[C@H]1CCN(c2c(Cl)cccc2/C=C2\SC(=O)NC2=O)C1 [Example 86, hydrochloride]', 'inhibition at 0.3 µM', '> 95%'),
  ('O=C1NC(=O)/C(=C/c2cccc(Cl)c2N2CCCNCC2)S1 [Example 122N, hydrochloride]', 'inhibition at 0.3 µM', '> 95%'),
  ('CNCCNC1CCN(c2cc(OC)c(OC)cc2/C=C2\SC(=O)NC2=O)C1 (stereo not shown) [Example 113, hydrochloride]', 'inhibition at 0.3 µM', '> 95%'),
  ('COc1cc(/C=C2\SC(=O)NC2=O)c(N2CCC(NCCN)C2)cc1OC (stereo not shown) [Example 111, hydrochloride]', 'inhibition at 0.3 µM', '> 95%'),
  ('O=C1NC(=O)/C(=C/c2cc(C(F)(F)F)cc(Cl)c2N2CCC(CCO)CC2)S1', 'inhibition at 0.3 µM', '< 5%'),
  ('COc1cccc(/C=C2\SC(=O)NC2=O)c1N1CC[C@H](N(C)C)C1', 'inhibition at 0.3 µM', '> 95%'),
  ('Cn1nnc2cc(/C=C3\SC(=O)NC3=O)ccc21', 'inhibition at 0.3 µM', '< 5%'),
  ('Cc1noc(C2CCCN(c3c(Cl)cc(C(F)(F)F)cc3/C=C3\SC(=O)NC3=O)C2)n1 (stereo not shown)', 'inhibition at 0.3 µM', '< 5%'),
  ('O=C1NC(=O)/C(=C/c2cc(C(F)(F)F)cc(Cl)c2N2CCN(c3ccc(F)cc3)CC2)S1', 'inhibition at 0.3 µM', '< 5%'),
  ('NCCCN[C@H]1CCN(c2ccc(C(F)(F)F)cc2/C=C2\SC(=O)NC2=O)C1 [Example 123, hydrochloride]', 'inhibition at 0.3 µM', '> 95%');

---

- TARGET_OF_ASSAY: human His-PIM2 [23-299] (Homo sapiens, UniProt Q9P1W9)
- Construct: purified human His-PIM2 [23-299] enzyme; His (N); host or cells: E. coli
- Sequence (Q9P1W9 23-299): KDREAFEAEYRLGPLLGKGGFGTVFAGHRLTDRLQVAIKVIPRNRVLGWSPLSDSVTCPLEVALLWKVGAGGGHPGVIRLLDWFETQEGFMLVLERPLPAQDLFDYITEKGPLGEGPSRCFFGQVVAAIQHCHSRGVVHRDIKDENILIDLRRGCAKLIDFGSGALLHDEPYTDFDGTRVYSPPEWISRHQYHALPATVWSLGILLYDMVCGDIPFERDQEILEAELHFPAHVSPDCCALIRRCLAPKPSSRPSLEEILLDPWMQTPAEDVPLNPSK
- PROCEDURE_TEXT: PIM2 in-vitro mobility shift assay (Caliper LC3000, FL-Ahx-Bad phosphorylation)
- Assay type: biochemical
- PARTICULARS: 1.5 h; percent inhibition at 0.3 uM compound; read-out: PIM2 % I at 0.3 uM
Structures can show the parent of a compound that is named as a salt.
Listing of recorded inhibition at 0.3 µM by entry.
MEASUREMENT_LABEL: inhibition at 0.3 µM

INSERT INTO measurements (molecule, target_of_assay, value_reported) VALUES
  ('COc1cc(/C=C2\SC(=O)NC2=O)c(N2CCC(NC(C)=O)C2)cc1OC (stereo not drawn) [Example 131A]', 'human His-PIM2 [23-299] (Homo sapiens, UniProt Q9P1W9)', '< 5%'),
  ('COc1cc(/C=C2\SC(=O)NC2=O)c(N2CCC(NCCCN)C2)cc1OC (stereo not drawn) [Example 126]', 'human His-PIM2 [23-299] (Homo sapiens, UniProt Q9P1W9)', '> 95%'),
  ('NC[C@@H]1CCN(c2c(Cl)cccc2/C=C2\SC(=O)NC2=O)C1 [Example 122C]', 'human His-PIM2 [23-299] (Homo sapiens, UniProt Q9P1W9)', '> 95%'),
  ('CC(C)CN1CCN(c2c(Cl)cc(C(F)(F)F)cc2/C=C2\SC(=O)NC2=O)CC1 [Example 12]', 'human His-PIM2 [23-299] (Homo sapiens, UniProt Q9P1W9)', '< 5%'),
  ('Cn1cc(C(=O)N[C@H]2CCN(c3c(Cl)cccc3/C=C3\SC(=O)NC3=O)C2)cn1 [Example 141]', 'human His-PIM2 [23-299] (Homo sapiens, UniProt Q9P1W9)', '< 5%'),
  ('COCCOc1cccc(/C=C2\SC(=O)NC2=O)c1N1CCC[C@@H](N)C1 [Example 122AA, hydrochloride]', 'human His-PIM2 [23-299] (Homo sapiens, UniProt Q9P1W9)', '> 95%'),
  ('CC1CCN(c2c(Cl)cccc2/C=C2\SC(=O)NC2=O)CC1N (stereo not drawn) [Example 122V, hydrochloride]', 'human His-PIM2 [23-299] (Homo sapiens, UniProt Q9P1W9)', '> 95%'),
  ('O=C1NC(=O)/C(=C/c2cccc(OCCCN3CCCCC3)c2)S1 [Example 84D]', 'human His-PIM2 [23-299] (Homo sapiens, UniProt Q9P1W9)', '< 5%'),
  ('COc1cccc(/C=C2\SC(=O)NC2=O)c1N1C[C@@H](C)N[C@@H](C)C1 [Example 35]', 'human His-PIM2 [23-299] (Homo sapiens, UniProt Q9P1W9)', '< 5%');
